FYI, the data here is from patent US11524968B2.

- MEASURED_ON: JAK1 (Homo sapiens (Human), UniProt P23458)
- Sequence (P23458 whole entry): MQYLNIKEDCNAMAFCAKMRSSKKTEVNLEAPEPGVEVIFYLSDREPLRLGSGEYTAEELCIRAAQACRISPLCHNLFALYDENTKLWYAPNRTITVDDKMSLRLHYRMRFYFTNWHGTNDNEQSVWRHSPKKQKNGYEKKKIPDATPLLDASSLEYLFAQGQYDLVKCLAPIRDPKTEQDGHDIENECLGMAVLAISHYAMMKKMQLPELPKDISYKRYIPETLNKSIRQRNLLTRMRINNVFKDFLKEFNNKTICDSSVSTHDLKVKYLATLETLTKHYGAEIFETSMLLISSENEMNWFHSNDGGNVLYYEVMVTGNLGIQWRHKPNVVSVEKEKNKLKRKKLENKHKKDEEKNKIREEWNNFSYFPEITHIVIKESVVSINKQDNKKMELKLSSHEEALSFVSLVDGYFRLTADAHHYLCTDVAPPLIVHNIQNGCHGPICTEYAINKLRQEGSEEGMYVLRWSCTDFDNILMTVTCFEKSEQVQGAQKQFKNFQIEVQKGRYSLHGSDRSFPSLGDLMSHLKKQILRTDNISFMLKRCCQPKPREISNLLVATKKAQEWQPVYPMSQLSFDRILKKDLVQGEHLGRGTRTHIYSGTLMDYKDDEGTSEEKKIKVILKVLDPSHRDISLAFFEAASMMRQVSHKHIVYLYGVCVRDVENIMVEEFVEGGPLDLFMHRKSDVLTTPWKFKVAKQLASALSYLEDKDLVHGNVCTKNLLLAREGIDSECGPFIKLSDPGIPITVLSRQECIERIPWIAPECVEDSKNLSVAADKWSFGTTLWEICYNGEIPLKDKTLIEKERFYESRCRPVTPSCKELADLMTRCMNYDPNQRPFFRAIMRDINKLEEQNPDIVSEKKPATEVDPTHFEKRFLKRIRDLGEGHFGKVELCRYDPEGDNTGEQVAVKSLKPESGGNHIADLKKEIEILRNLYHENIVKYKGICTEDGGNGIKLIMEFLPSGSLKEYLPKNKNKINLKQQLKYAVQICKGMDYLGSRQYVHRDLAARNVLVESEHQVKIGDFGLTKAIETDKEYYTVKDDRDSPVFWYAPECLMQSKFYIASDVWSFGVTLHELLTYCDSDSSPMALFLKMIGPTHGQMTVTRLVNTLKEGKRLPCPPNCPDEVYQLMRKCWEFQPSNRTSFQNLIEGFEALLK
- PROTOCOL_SUMMARY: Analysis of JAK1 activity inhibition ability (ADP-Glo Kinase Assay)
- Type: biochemical
- DETAILS: JAK1 enzyme, ADP-Glo luminescence, ATP 250 uM, IRS-itide substrate, 30° C. 40 minutes; read-out: IC50
- Experimental: Test Example 1: Analysis of JAK1 Activity Inhibition Ability of Compound of Formula 1 (ADP-Glo™ Kinase Assay) A JAK inhibition ability of a compound according to the present invention was identified as follows. A control material and a test material were prepared for each concentration, in such a way that they were diluted by means of DMSO. […]
ENDPOINT: IC50

Answered cases to consult:
# COMPOUND, IC50
measured = [
    ("CC(=O)N1CCC(S(=O)(=O)Nc2ccc(-c3cc(NC(=O)C4CC4)nc4[nH]ccc34)cc2)CC1 [Example 18]", "20 to 200 nM"),
    ("O=C(Nc1nc(-c2ccc(NS(=O)(=O)CCCF)cc2)c2cc[nH]c2n1)C1CC1 [Example 185]", "< 20 nM"),
    ("O=C(Nc1cc(-c2ccc(NS(=O)(=O)C3CCC3)c(F)c2)c2cc[nH]c2n1)C1CC1 [Example 78]", "< 20 nM"),
    ("CCS(=O)(=O)N(C)[C@H]1CCN(c2cc(NC(=O)C3CC3)nc3[nH]ccc23)C1 [Example 672]", "> 200 nM"),
    ("O=C(Nc1cc(C2=CCC(NC(=O)C3CCCC3)CC2)c2cc[nH]c2n1)C1CC1 (centres unmarked) [Example 245]", "20 to 200 nM"),
]

Please supply the value of reported IC50 for the item O=C(Nc1cc(C2=CCC(NS(=O)(=O)c3cccc(F)c3)CC2)c2cc[nH]c2n1)C1CC1 (centres unmarked) [Example 163]
< 20 nM

Output measured IC50 for this item: O=C(Nc1nc(-c2ccc(NS(=O)(=O)N3CCOCC3)cc2)c2nc[nH]c2n1)C1CC1 [Example 238]
> 200 nM

Given the compound O=C(Nc1cc(N2CCN(C[C@@H]3CC3(F)F)CC2)c2cc[nH]c2n1)C1CC1 [Example 699] , write its reported IC50.
20 to 200 nM
